Level of intensity of expression in log2 measured by high-throughput sequencing, FC by entry:
System: human airway epithelial cells (HAECs)
Experiment: High-throughput sequencing (HTS) of miRNAs at four stages of differentiation of HAECs
Conditions: stage FC; Table VI
// unit must come after the numeric part

The cases that follow already have their Level of intensity of expression in log2 measured by high-throughput sequencing, FC on record.
> print(dat)
                                  substance                          target.system      result
1  hsa-miR-425: human miRNA, SEQ ID No. 44 (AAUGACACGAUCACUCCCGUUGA; expressed or natural sequence; listed as Homo sapiens)  human airway epithelial cells (HAECs)  11.75 log2
2  hsa-miR-30c: human miRNA, SEQ ID No. 34 (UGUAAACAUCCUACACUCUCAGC; expressed or natural sequence; listed as Homo sapiens)  human airway epithelial cells (HAECs)   0.41 log2

Here is the next item to consider.
Using the record for hsa-let-7g: human miRNA, SEQ ID No. 162 (UGAGGUAGUAGUUUGUACAGUU; expressed or natural sequence; listed as Homo sapiens) , state its measured Level of intensity of expression in log2 measured by high-throughput sequencing, FC.
11.57 log2
